Field: residual activity. Provide a value for each of the molecules that follow.
target: PRKACG (human) (UniProt P22612); test: radiometric filter-binding kinase assay, Kinase HotSpot; conditions: compound 0.5 µM; ATP 10 µM
Sequence (P22612 whole entry, looked up): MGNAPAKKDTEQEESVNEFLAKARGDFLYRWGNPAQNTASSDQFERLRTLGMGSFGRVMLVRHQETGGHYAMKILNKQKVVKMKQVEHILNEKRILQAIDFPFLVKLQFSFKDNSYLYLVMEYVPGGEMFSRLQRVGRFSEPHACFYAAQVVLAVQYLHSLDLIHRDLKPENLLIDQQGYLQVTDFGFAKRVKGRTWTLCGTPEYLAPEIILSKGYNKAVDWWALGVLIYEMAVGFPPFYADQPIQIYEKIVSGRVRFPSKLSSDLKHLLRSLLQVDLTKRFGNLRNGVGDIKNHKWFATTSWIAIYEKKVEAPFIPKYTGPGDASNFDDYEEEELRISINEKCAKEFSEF
Entry format: amount then unit.

q: Tell me reported residual activity for CN(C)S(=O)(=O)c1ccc2c(c1)/C(=C/c1cc3c([nH]1)CCCC3)C(=O)N2 , tested with PRKACG (human) (UniProt P22612).
a: 114%

q: // map CS(=O)(=O)CCNCc1ccc(-c2ccc3ncnc(Nc4ccc(OCc5cccc(F)c5)c(Cl)c4)c3c2)o1 to recorded residual activity (system: PRKACG (human) (UniProt P22612))
a: 110%

q: What reported residual activity corresponds to COc1cc2ncnc(Nc3ccc(Oc4ccccc4)cc3)c2cc1OC on PRKACG (human) (UniProt P22612)?
a: 137%

q: Kindly state the measured residual activity obtained for Cc1cccc(-c2nc(C(C)(C)C)[nH]c2-c2ccc3c(c2)OCO3)n1 with PRKACG (human) (UniProt P22612).
a: 119%

q: Query the reported residual activity for PRKACG (human) (UniProt P22612); item: COc1ccc(S(=O)(=O)N(CCO)c2ccccc2CN(C)C/C=C/c2ccc(Cl)cc2)cc1
a: 104%

====

target: ULK1 (human) (UniProt O75385); assay: radiometric filter-binding kinase assay, Kinase HotSpot; settings: compound 0.5 µM; ATP 10 µM
Sequence (O75385 whole entry, looked up): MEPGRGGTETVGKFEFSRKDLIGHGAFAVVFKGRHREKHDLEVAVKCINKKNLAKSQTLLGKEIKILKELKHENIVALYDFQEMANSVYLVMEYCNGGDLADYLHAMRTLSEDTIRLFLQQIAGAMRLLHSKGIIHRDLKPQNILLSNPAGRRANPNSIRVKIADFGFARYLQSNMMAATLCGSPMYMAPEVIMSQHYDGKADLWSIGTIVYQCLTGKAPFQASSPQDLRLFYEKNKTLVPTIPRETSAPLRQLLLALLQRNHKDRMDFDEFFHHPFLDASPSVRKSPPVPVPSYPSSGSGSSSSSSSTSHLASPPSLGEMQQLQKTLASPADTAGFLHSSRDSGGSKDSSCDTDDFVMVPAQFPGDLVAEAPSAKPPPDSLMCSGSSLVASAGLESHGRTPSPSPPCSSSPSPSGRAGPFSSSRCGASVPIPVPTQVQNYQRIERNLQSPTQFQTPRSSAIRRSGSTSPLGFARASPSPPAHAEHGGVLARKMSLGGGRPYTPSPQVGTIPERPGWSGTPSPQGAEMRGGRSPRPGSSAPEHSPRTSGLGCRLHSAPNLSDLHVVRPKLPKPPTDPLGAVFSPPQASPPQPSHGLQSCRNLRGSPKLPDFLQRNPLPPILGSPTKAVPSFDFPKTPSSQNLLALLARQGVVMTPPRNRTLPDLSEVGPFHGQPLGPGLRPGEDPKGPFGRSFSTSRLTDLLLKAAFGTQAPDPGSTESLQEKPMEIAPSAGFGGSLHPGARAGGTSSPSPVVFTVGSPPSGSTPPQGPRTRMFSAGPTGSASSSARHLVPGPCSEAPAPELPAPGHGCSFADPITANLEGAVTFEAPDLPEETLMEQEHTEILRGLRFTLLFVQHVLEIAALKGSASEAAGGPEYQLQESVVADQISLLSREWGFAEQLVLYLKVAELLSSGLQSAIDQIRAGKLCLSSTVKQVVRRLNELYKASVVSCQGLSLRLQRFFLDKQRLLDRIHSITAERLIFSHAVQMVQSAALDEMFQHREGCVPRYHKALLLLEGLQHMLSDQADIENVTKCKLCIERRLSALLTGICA
Quantity: residual activity
Please give the number followed by its unit.

q: Query: residual activity; subject: COc1ccc2c(c1)/C(=C/c1cnc[nH]1)C(O)=N2
a: 53.4%

q: What value of residual activity has been reported for the following molecule? CO[C@@H]1[C@H](N(C)C(=O)c2ccccc2)C[C@H]2O[C@]1(C)n1c3ccccc3c3c4c(c5c6ccccc6n2c5c31)C(=O)NC4
a: 99.2%

q: Record request: residual activity value, item COc1ccc2c(c1)c(C1=C(c3c[nH]c4ccccc34)C(=O)NC1=O)cn2CCCN(C)C
a: 99%

q: Item CN(C)c1ccc(/C=C2\C(=O)Nc3ccccc32)cc1 has what recorded residual activity?
a: 91.9%

q: Recorded residual activity for CN(C)CCCn1cc(C2=C(c3c[nH]c4ccccc34)C(=O)NC2=O)c2ccccc21 , please?
a: 84.7%

====

molecular target: TYK2 JH1 catalytic (human); assay: radiometric filter-binding kinase assay, Kinase HotSpot; settings: compound 0.5 µM; ATP 10 µM
Quantity: residual activity

q: Which residual activity is listed for Ic1cccc(CSc2nnc(-c3ccncc3)o2)c1 ?
a: 105%

q: Quick check: residual activity of Cn1c2ccccc2c2c3c(c4c5ccccc5n(CCC#N)c4c21)CNC3=O ?
a: 2.62%

q: Which residual activity is listed for Cc1cccc(-c2nc(C(C)(C)C)[nH]c2-c2ccc3c(c2)OCO3)n1 ?
a: 102%

q: // returns reported residual activity for input COc1cc(Nc2c(C#N)cnc3cc(OCCCN4CCN(C)CC4)c(OC)cc23)c(Cl)cc1Cl
a: 98.1%

q: What value of residual activity has been reported for the following molecule? CN(C)c1ccc(/C=C2\C(=O)Nc3ccccc32)cc1
a: 103%

====

biological target: UniProt:P05771; test: radiometric filter-binding kinase assay, Kinase HotSpot; conditions: compound 0.5 µM; ATP 10 µM
Sequence (P05771 whole entry, looked up): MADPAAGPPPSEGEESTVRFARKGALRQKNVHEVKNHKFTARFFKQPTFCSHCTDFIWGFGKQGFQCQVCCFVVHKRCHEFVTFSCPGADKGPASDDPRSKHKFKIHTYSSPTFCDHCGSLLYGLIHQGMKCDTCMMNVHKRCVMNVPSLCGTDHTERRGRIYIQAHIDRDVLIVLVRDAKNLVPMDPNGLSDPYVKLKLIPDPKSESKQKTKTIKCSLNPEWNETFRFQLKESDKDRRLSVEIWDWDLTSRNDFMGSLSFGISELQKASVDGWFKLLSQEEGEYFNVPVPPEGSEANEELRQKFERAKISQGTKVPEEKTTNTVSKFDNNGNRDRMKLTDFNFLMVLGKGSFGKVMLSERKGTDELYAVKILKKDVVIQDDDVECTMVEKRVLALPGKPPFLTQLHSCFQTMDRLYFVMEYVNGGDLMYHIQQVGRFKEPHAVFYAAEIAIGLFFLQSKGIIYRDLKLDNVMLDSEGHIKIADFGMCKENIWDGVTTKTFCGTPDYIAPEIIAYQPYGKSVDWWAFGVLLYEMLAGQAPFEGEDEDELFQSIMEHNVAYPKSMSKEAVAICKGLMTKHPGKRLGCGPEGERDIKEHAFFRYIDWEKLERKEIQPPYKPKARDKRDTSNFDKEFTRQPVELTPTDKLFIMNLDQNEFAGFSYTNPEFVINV
Decision: residual activity >= 90% yields Met, all other cases yield Not met.

q: Decide: is the reported value of residual activity for O=C1NC(=O)c2c1c1c3ccccc3[nH]c1n1cncc21 equal to or greater than 90%?
a: Met

q: Check the entry COc1ccc(S(=O)(=O)N(CCO)c2ccccc2CN(C)C/C=C/c2ccc(Cl)cc2)cc1 : does residual activity equal or exceed 90%?
a: Met

q: Tell me whether residual activity is at least 90% here: CCCCc1c(-c2ccc(OC)cc2)[nH]c2nccnc12
a: Met

q: Hi, just wondering whether O=C1c2ccccc2-c2nc3nnnn3nc21 shows residual activity of 90% or higher.
a: Not met

q: Identify whether the reported residual activity of the following molecule is 90% or greater: CS(=O)(=O)CCNCc1ccc(-c2ccc3ncnc(Nc4ccc(OCc5cccc(F)c5)c(Cl)c4)c3c2)o1
a: Met

q: Given CC(C)(C)c1cc(C=C(C#N)C#N)cc(Br)c1O , state whether its residual activity is at least 90%.
a: Met

q: Threshold query (residual activity >= 90%) on COc1ccc(Cl)cc1NC(=O)Nc1cc(C)nc2ccccc12
a: Met

q: hey, is residual activity for this one >= 90%? COc1ccc(C(=O)Nc2sc3c(c2C(N)=O)CCCC3)cc1OC
a: Met

q: Textbook exercise: given the entry NC(=O)c1cccc(-c2cc(Nc3ccc(OC(F)(F)F)cc3)ncn2)c1 , state whether its residual activity is greater than or equal to 90%.
a: Met

q: Reported residual activity at or above 90%? O=C1Nc2ccc(Br)cc2/C1=C\c1cc2c([nH]1)CCCC2
a: Not met

q: # bool: residual activity of N#Cc1c[nH]c2c[nH]/c(=N\Cc3cccnc3)cc2/c1=N\c1ccc(F)c(Cl)c1 >= 90%
a: Not met

q: Identify whether the reported residual activity of the following molecule is 90% or greater: Cn1c2ccccc2c2c3c(c4c5ccccc5n(CCC#N)c4c21)CNC3=O
a: Not met

q: Does the reported residual activity for COc1ccc2c(c1)/C(=C/c1cnc[nH]1)C(O)=N2 fall at or above the 90% mark?
a: Met

q: Is it the case that COc1cc2ncnc(Nc3ccc(OCc4ccccc4)cc3)c2cc1OC has residual activity reaching or exceeding 90%?
a: Met

q: Entry O=C1C(Cl)=C(N2C(=O)CCC2=O)C(=O)c2ccccc21 : is its residual activity no less than 90%?
a: Met

q: Does the molecule COc1cc2ncnc(Nc3ccc(Oc4ccccc4)cc3)c2cc1OC have recorded residual activity that is 90% or more?
a: Met

Where do these numbers come from? They come from the kinase profiling compilation of Christmann-Franck et al. (2016).
